- tested.on: Urokinase-type Plasminogen Activator (uPA) (Homo sapiens, UniProt P00749)
- test.name: uPA cleavage of substrate peptides measured by FRET
- Assay type: biochemical
- test.context: uPA 7.5 × 10^−3 mg/mL, peptide 0.5 mg/mL, PBS pH=7.4
Give Fluorescence Intensity Time to Reach Plateau for every item shown.
Answers are plain numbers, in h.

// known answers, use as guide
| sequence | endpoint.value |
| --- | --- |
| GSGRNAQV [SEQ ID NO: 54, uPA substrate peptide] | 1.4 |
| LGGSGRNAQVRLE [SEQ ID NO: 53, uPA substrate peptide] | 1.6 |
| LSGRSDNH [SEQ ID NO: 50] | 1.7 |

Fill in: Fluorescence Intensity Time to Reach Plateau of LGGSGRSANAILE [SEQ ID NO: 52, uPA substrate peptide] is ___ 1.4

====

- Tested on: HCT15-hPDL1 cells
- test.name: In vitro cytotoxicity study, CellTiter-Glo Luminescent Cell Viability Assay
- Format: cell-based, Human
- test.context: Homo sapiens, 120 h; 5 days exposure
metric.name: IC50 (nM)
Numbers only, in nM.

| compound | tested.on | IC50, nM |
| --- | --- | --- |
| CCc1c2c(nc3ccc(O)cc13)-c1cc3c(c(=O)n1C2)COC(=O)[C@]3(O)CC [SN38, 7-ethyl-10-hydroxy-20(S)-camptothecin] | HCT15-hPDL1 cells | 11.2 |

Shifting focus to the compound that follows.
What does the data say about its IC50? Entry: CCc1c2c(nc3ccc(O)cc13)-c1cc3c(c(=O)n1C2)COC(=O)[C@@]3(CC)OC(=O)N(C)CCN(C)C(=O)OCc1ccc(NC(=O)[C@H](CCCNC(N)=O)NC(=O)[C@@H](NC(=O)CCOCCOCCOCCOCCOCCOCCOCCOCCCNC(=O)CNC(=O)CNC(=O)CN)C(C)C)cc1 [Compound of Formula (2)] 38.1
